molecular target: Retinoic acid receptor alpha (Homo sapiens, UniProt P10276); assay: Transcriptional activation in CV-1 cells expressing human Retinoic acid receptor RAR alpha; type: cell-based
Sequence (P10276 whole entry): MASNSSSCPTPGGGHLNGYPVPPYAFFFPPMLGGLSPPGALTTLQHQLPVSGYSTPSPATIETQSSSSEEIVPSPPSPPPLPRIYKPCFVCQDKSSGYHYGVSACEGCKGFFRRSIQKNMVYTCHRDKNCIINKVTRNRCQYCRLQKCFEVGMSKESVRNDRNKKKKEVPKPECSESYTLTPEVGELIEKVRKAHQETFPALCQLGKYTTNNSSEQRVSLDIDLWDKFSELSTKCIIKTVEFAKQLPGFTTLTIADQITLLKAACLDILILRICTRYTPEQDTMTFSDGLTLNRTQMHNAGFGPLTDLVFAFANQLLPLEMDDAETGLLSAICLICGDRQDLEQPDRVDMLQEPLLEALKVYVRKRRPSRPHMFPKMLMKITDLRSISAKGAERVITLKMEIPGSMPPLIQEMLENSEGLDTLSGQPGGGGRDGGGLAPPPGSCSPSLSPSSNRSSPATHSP
measured_property: pEC50
Numbers only, as −log10 of the molar value.

[in] Note down pEC50 recorded for CC(/C=C/CC1(c2cc(C(C)(C)C)cc(C(C)(C)C)c2)CC1)=C\C(=O)O
[out] 6.13

----------
Would you kindly list pEC50 for each of these compounds?
molecular target: Retinoic acid receptor RXR-gamma (Mus musculus, UniProt P28705); test: Transcriptional activation in CV-1 cells expressing mouse Retinoid X receptor RXR gamma; format: cell-based
Sequence (P28705 whole entry): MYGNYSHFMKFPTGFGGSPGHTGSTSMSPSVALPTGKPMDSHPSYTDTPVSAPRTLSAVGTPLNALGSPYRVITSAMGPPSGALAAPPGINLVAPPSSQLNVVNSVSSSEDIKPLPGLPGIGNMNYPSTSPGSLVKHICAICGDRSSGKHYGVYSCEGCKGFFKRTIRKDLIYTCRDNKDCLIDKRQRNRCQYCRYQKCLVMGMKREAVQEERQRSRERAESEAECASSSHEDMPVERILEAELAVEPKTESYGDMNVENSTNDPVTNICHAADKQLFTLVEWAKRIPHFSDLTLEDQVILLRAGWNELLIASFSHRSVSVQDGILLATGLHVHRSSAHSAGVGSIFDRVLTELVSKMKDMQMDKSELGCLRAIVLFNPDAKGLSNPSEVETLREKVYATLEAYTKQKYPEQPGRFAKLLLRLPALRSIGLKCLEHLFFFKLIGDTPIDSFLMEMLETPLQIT
Answers are plain numbers, as −log10 of the molar value.

| smiles_entry | measurement_target | measured_property | observed_value |
| --- | --- | --- | --- |
| CC(/C=C/CC1(c2ccc3c(c2)C(C)(C)CCC3(C)C)CCCC1)=C\C(=O)O | Retinoic acid receptor RXR-gamma (Mus musculus, UniProt P28705) | pEC50 | 7.62 |
| CC(/C=C/CC1(c2cc(C(C)(C)C)cc(C(C)(C)C)c2)CC1)=C\C(=O)O | Retinoic acid receptor RXR-gamma (Mus musculus, UniProt P28705) | pEC50 | 7.64 |

Attention now turns to another entry.
[in] Return reported pEC50. Input compound: CC(/C=C/CC1(c2cc3c(cc2C)C(C)(C)CCC3(C)C)CC1)=C\C(=O)O
[out] 7.44

These measurements were taken from ChEMBL document CHEMBL1136268.
